System: c-Abl (mouse);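 further: 11-residue human phosphosite peptides and single-mutation variants displayed on the E. coli surface, counted by deep sequencing, each peptide's frequency after selection divided by its frequency in the unselected input library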;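 further: frequency after pTyr selection over input frequency; kinase dosed for 20-30% of maximal phosphorylation in three min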
MEASUREMENT NOTES: phosphorylation enrichment, bacterial display (enrichment ratio); higher = better substrate or ligand; peptides without Tyr show the background
Measured phosphorylation enrichment by item
Could you respond with only the numeric value?

RESIDUE STRING	phosphorylation enrichment
RGRKVYLEDGF [PRIM2_Y201]	1.29
PTTKTYFPHFD [HBA1_Y43]	0.59
SAQHHYESLQT [BIN1_Y157_R154Q]	0.601
FTTIHYNFMCN [TP53_Y234_C229Y_YF]	0.987
VGQRPYRPLPE [REEP3_Y170_Q171R]	0.683

May I ask what phosphorylation enrichment has been recorded for DLGIQYKALKP [CTNNA1_Y177] ?
0.573

May I ask what phosphorylation enrichment has been recorded for VTAALYGRLFE [BTD_Y536_YF] ?
0.626

May I ask what phosphorylation enrichment has been recorded for VVPGSYDRLRV [IFT172_Y260_L257P] ?
0.406

May I ask what phosphorylation enrichment has been recorded for YRASYYRKGGC [ALK_Y1283] ?
0.653

May I ask what phosphorylation enrichment has been recorded for INITIYGKTFC [EFHC1_Y177_R182C] ?
0.982

May I ask what phosphorylation enrichment has been recorded for QLHREYCLSPR [HJURP_Y445] ?
1.13

May I ask what phosphorylation enrichment has been recorded for GEEIKYMLWLS [OTC_Y55] ?
1.19

May I ask what phosphorylation enrichment has been recorded for KRRGPYEMSPS [PLPP7_Y172_T174M] ?
0.508

May I ask what phosphorylation enrichment has been recorded for RTCSSYAIEKI [PARP15_Y520] ?
0.667
